Provenance of the data: PubChem BioAssay (NCATS)

tested on: CP260; test: qHTS profiling for inhibitors of Plasmodium falciparum proliferation (AID 504749); also: nearly all actives have a fitted effect of over 60% in size; conditions: P. falciparum in erythrocytes, SYBR Green DNA, 72 h; series mostly up to 28.7 µM
Results filed as inconclusive are left out. Calls of active or inactive are those of the source. Calls follow the shape of the dose curve; as a rule, active = well fitted inhibition curve with a large enough effect; inconclusive = small, poorly fitted or top-dose-only effect; inactive = flat fitted curve, though single readings scatter.
Your response should consist of one outcome taken from TRUE for active, FALSE for inactive

Worked examples, 4 compounds total:
> print(dat)
                    structure.smiles.string  category.label
1                         Cc1c[nH]c2ccccc12           FALSE
2                           NC(=O)c1ccccc1O           FALSE
3  O=C(c1ccc(F)cc1)C1CCN(CCn2c(=S)[nH]c3ccccc3c2=O)CC1            TRUE
4          COc1ccc2c(c1)c1c3n2CCN(C)C3=NCC1           FALSE

Shifting focus to the compound that follows.
Exercise: Write down the call the test reported for this compound. Item: Nc1ccc(S(=O)(=O)NCc2ccccc2)cc1
Key: FALSE

* * *

experiment: S16 Schwann cell PMP22 intronic element firefly luciferase assay (AID 624032); details: S16 rat Schwann cells, PMP22 element FLuc, 24 h; series mostly up to 57.5 µM; also: nearly all actives have a fitted effect of over 30% in size
Results filed as inconclusive are left out. Active and inactive are the calls of the source. The call rests on the fitted dose curve; in most records, active means well fitted inhibition curve with a large enough effect; inconclusive means small, poorly fitted or top-dose-only effect; inactive means no such curve, though single readings can be large or run the other way.
Parameter call: string, one of 1.0 = active, 0.0 = inactive

> print(dat)
                                   compound  category.label
1                Cc1ccc2c(Br)cc(Br)c(O)c2n1             0.0
2  O[C@@H](c1cc(C(F)(F)F)nc2c(C(F)(F)F)cccc12)[C@H]1CCCCN1             1.0
3  CC(C)NCC(O)c1ccc2ccccc2c1 (configuration not stated)             0.0

Exercise: Tell me the assay call for CCOCCn1c(N2CCCN(C)CC2)nc2ccccc21 please.
Key: 0.0

* * *

test: qHTS Assay for Identifying Gametocytocidal Compounds (AID 743244);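 also: % is scaled to controls: 0 for no effect and ±100 for the full control effect; actives lower the fluorescent signal which means gametocytes are killed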; conditions: P. falciparum 3D7 stage III-V gametocytes, alamarBlue, 72 h; stronger effect = lower value
Records with an inconclusive call do not appear.
Endpoint Name: max response (%)
Give bare numbers, in %.

> print(dat)
                                   compound  endpoint.name  unit.text  recorded.result
1  C[C@@H](O)[C@H]1C(=O)N2C(C(=O)O)=C([C@H]3CCCO3)S[C@H]12   max response          %            -9.42
2  CCN1CCN(C(=O)N[C@@H](C(=O)N[C@@H]2C(=O)N3C(C(=O)O)=C(CSc4nnnn4C)CS[C@H]23)c2ccc(O)cc2)C(=O)C1=O   max response          %             14.5

Hey, can you go through the list below and give me max response for every item?
1. N/C(=N\N=C\c1ccc(Cl)cc1)N/N=C/c1ccc(Cl)cc1
2. CCCCCCCCCCC[C@@H](C[C@@H]1OC(=O)[C@H]1CCCCCC)OC(=O)[C@H](CC(C)C)NC=O

Key:
0.563
-7.75

Give measured max response for every item shown.
1. CC(C)CCCC(C)N (stereo not given)
2. NC(=S)N/N=C/c1cccnc1
3. COc1ccc(CN(CCN(C)C)c2ncccn2)cc1
4. CCCCCCCCCCCCOCCOCCOCCOCCOCCOCCOCCOCCOCCO
5. Cc1cn([C@H]2C[C@H](F)[C@@H](CO)O2)c(=O)[nH]c1=O
6. O=C1OC(CN2CCOCC2)CN1/N=C/c1ccc([N+](=O)[O-])o1 (stereo not given)

Key:
6.57
-11.6
-8.37
14.7
-5.75
-7.98

* * *

system: ATS95; test: qHTS profiling for inhibitors of Plasmodium falciparum proliferation (AID 504749); also: nearly all actives have a fitted effect of over 60% in size; details: P. falciparum in erythrocytes, SYBR Green DNA, 72 h; series mostly up to 28.7 µM
Inconclusive results are not listed. Active and inactive are the calls of the source. Calls come from the whole dose curve; as a rule, active = well fitted inhibition curve with a large enough effect; inconclusive = small, poorly fitted or top-dose-only effect; inactive = flat fitted curve, though single readings scatter.
Write down the outcome that applies. Available outcomes: active, inactive

Examples from the recorded data:
> print(dat)
                                   molecule  category.label
1         COc1cc(NS(=O)(=O)c2ccc(N)cc2)ncn1        inactive
2  CCN1/C(=C/C=C/c2sc3ccccc3[n+]2CC)Sc2ccccc21          active
3  CCC(CC)(CC(=O)Nc1cccc(/C=C/c2nc(C3CCC3)cs2)c1)C(=O)O        inactive

Exercise: What call does the record list for O=C(O)c1ccc(S(=O)(=O)N(Cl)Cl)cc1 ?
Key: inactive

Exercise: Please state the recorded outcome for this molecule: Cc1cccc(C)c1NC(=O)CN1CCCC1
Key: inactive

Exercise: Which outcome was assigned to CCNC(=O)NCc1cccc(Cl)c1 in this test?
Key: inactive

Exercise: I'd appreciate the recorded outcome for N/C(=N\N=C\c1ccc(Cl)cc1)N/N=C/c1ccc(Cl)cc1 from this test.
Key: active

Exercise: Hello, I am checking results. What call was entered for NS(=O)(=O)c1cc(C(=O)O)cc(N2CCCC2)c1Oc1ccccc1 ?
Key: inactive

Exercise: Query: recorded result category for O=C(O)P(=O)(O)O in this test
Key: inactive

Exercise: Hello, I am checking results. What call was entered for CN(C)C(=O)Nc1ccc(Cl)c(Cl)c1 ?
Key: inactive

Exercise: # lookup: test call for COc1ccc(C(Cl)=C(c2ccc(OC)cc2)c2ccc(OC)cc2)cc1
Key: active

Exercise: # outcome recorded in this test, key = OC1C(O)C(O)C(O)C(O)C1O (configuration not stated)
Key: inactive

* * *

target: Thyroid hormone receptor beta (Homo sapiens); experiment: qHTS assay for small molecule antagonists of thyroid hormone receptor beta signaling (AID 588547); details: TR-UAS-bla HEK293, beta-lactamase ratio, antagonist mode, 18 h;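 also: cells stimulated with 0.4 nM T3 agonist during compound exposure; % is scaled to controls: 0 for no effect and ±100 for the full control effect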
Results filed as inconclusive are left out. Calls of active or inactive are those of the source. Calls come from the whole dose curve; as a rule, active = well fitted inhibition curve with a large enough effect in the signal ratio, with a control signal flat (not every such curve was filed as active); inconclusive = small, poorly fitted or top-dose-only effect, or effect the other way, or a change in a side signal; inactive = flat fitted curve, though single readings scatter; the % refers to the signal ratio.
Endpoint Name: activity change % (negative = inhibition)

Some solved cases for reference:
> print(dat)
                                   molecule    recorded.result
1          O=C(O)c1ccc(S(=O)(=O)N(Cl)Cl)cc1   9.05% (inactive)
2  C=C[C@@]1(C)CC(=O)[C@]2(O)[C@@]3(C)[C@@H](O)CCC(C)(C)[C@@H]3[C@H](O)[C@H](OC(C)=O)[C@@]2(C)O1   10.4% (inactive)
3                           NC(=O)c1ccccc1O  -15.4% (inactive)
4  CC(C)(C)CC(C)(C)c1ccc(O)c(-n2nc3ccccc3n2)c1  -12.9% (inactive)
5               CN(C)C(=O)Nc1ccc(Cl)c(Cl)c1  -2.96% (inactive)

Quick one: give me activity change % (negative = inhibition) for each item below, same order please.
1. CCCCCCCCCCCCCCCCO
2. CC1(COc2ccc(CC3SC(=O)NC3=O)cc2)CCCCC1 (configuration not stated)

Key:
["11.7% (inactive)", "-31.9% (inactive)"]

* * *

biological target: Ubiquitin carboxyl-terminal hydrolase 1 (Homo sapiens); assay: Inhibitors of USP1/UAF1: Pilot qHTS (AID 504865); conditions: purified USP1/UAF1, Ub-rhodamine cleavage fluorescence; series mostly up to 114 µM;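 also: rhodamine fluorescence freed from ubiquitin-rhodamine substrate followed over time; top concentration of the series differs between compounds; % is scaled to controls: 0 for no effect and ±100 for the full control effect; nearly all actives have a fitted effect of over 35% in size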
Results filed as inconclusive are left out. Active and inactive are the calls of the source. The call rests on the fitted dose curve; in most records, active means well fitted inhibition curve with a large enough effect; inconclusive means small, poorly fitted or top-dose-only effect; inactive means flat fitted curve, though single readings scatter.
Choose one outcome from this list and give only that: active, inactive

Example results:
> print(dat)
                                   molecule  category.label
1  COP(=O)(OC)OC(c1ccc(Cl)cc1)P(=O)(OC)OC (stereo unspecified)        inactive
2  CC(C)NCC(O)c1ccc2ccccc2c1 (stereo unspecified)        inactive
3                      CCOc1ccc(NC(C)=O)cc1        inactive
4                  O=C(O)CCc1nc2ccccc2[nH]1        inactive
5  NC(=O)C1(N2CCCCC2)CCN(CCCC(=O)c2ccc(F)cc2)CC1        inactive
6                    Nc1nc(N)c(-c2ccccc2)s1        inactive

Exercise: Hi team, can someone confirm the assay call for CC(=O)NO ?
Key: inactive

Exercise: Test call, this molecule: NC(=S)N/N=C/c1cccnc1
Key: inactive

Exercise: I'd appreciate the recorded outcome for Cc1cc2c(OCC(CNC(C)(C)C)OC(=O)c3ccccc3)cccc2[nH]1 (stereo unspecified) from this test.
Key: inactive

* * *

tested on: SC27B; test: qHTS profiling for inhibitors of Plasmodium falciparum proliferation (AID 504749); also: nearly all actives have a fitted effect of over 60% in size; settings: P. falciparum in erythrocytes, SYBR Green DNA, 72 h; series mostly up to 28.7 µM
Results filed as inconclusive are left out. Activity calls are given as the source filed them. The call rests on the fitted dose curve; in most records, active means well fitted inhibition curve with a large enough effect; inconclusive means small, poorly fitted or top-dose-only effect; inactive means flat fitted curve, though single readings scatter.
Select the correct class. Options are yes (1) = active, no (0) = inactive and nothing else.

Field: example entries. Status: answers known.
> print(dat)
                                   compound  tested.on  category.label
1  Oc1c(Cl)cc(Cl)c(Cl)c1Cc1c(O)c(Cl)cc(Cl)c1Cl      SC27B         yes (1)
2       Cc1cc(NS(=O)(=O)c2ccc(N)cc2)nc(C)n1      SC27B          no (0)
3       CCCCCCCCOc1ccc(C(=O)c2ccccc2)c(O)c1      SC27B          no (0)
4        CCCN(CCC)S(=O)(=O)c1ccc(C(=O)O)cc1      SC27B          no (0)
5  CCc1ccc(C(=O)C(C)CN2CCCCC2)cc1 (centres undefined)      SC27B          no (0)

Let us examine a further case.
Exercise: Per the assay record, what outcome was assigned to Cc1c[nH]c2ccccc12 ?
Key: no (0)
